The compounds listed here are annotated with their inhibition at 50 µM.
# assay-target: HRV-14 3Cpro (Human rhinovirus 14)
# Construct: most efficiently processed substrate by HRV-14 3Cpro (Acro, Beijing, China); purchased Acro, Beijing, China
# protocol: HRV-14 3Cpro enzyme inhibition assay (Dabcyl-[…]-Edans cleavage, fluorescence)
# Type: biochemical
# particulars: 50 μM compound, single point
I only need the number, in %, no unit after it.

Recorded results for 3 compounds are shown here.
substance_smiles=O=C(COC(=O)[C@@H](CC(=O)c1ccccc1)Nc1ccc(F)cc1)c1ccccc1 test_readout="inhibition at 50 µM" endpoint_unit=% obs_value=96.5
substance_smiles=CCOc1ccc(NC(=O)[C@H](CC(C)C)NC(=O)[C@H]2CC[C@@H](C)CC2)cc1 test_readout="inhibition at 50 µM" endpoint_unit=% obs_value=75.6
substance_smiles=CCC(CC)C(=O)Nc1cccc(C(=O)Nc2ccccc2C(=O)Nc2ccc(OC)cc2)c1 test_readout="inhibition at 50 µM" endpoint_unit=% obs_value=88.8

Now consider a different compound.
Param item = `Nc1c(NC(=O)NC[C@H]2CCCO2)c(-c2ccccc2)nn1-c1ccc(C(F)(F)F)cc1` ; retrieve measured inhibition at 50 µM. 80.5

###

Attribute: IC50
# assay-target: HRV-14 3Cpro (Human rhinovirus 14, UniProt P03303)
# Construct: most efficiently processed substrate by HRV-14 3Cpro (Acro, Beijing, China); purchased Acro, Beijing, China
# Sequence (P03303 1538-1719): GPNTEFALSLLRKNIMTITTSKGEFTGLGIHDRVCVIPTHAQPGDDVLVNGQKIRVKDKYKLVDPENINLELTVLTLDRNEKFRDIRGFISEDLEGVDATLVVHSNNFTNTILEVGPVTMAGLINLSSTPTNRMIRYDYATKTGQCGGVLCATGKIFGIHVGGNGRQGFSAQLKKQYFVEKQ
# protocol: HRV-14 3Cpro enzyme inhibition assay (Dabcyl-[…]-Edans cleavage, fluorescence)
# Format: biochemical
# particulars: concentration-response, 50 μM to 0.617 μM, n = 5, mean ± SEM
Respond with the bare value in µM.

molecule=CCOc1ccc(NC(=O)[C@H](CC(C)C)NC(=O)[C@H]2CC[C@@H](C)CC2)cc1 assay_target="HRV-14 3Cpro (Human rhinovirus 14, UniProt P03303)" test_readout=IC50 obs_value=24.1

Field request: IC50 | item: `Nc1c(NC(=O)NC[C@H]2CCCO2)c(-c2ccccc2)nn1-c1ccc(C(F)(F)F)cc1` 30.4

Would you kindly share the measured IC50 for `CCC(CC)C(=O)Nc1cccc(C(=O)Nc2ccccc2C(=O)Nc2ccc(OC)cc2)c1` ? 2.33

Tell me the measured IC50 of CCOC(=O)/C=C/[C@H](C[C@@H]1CCNC1=O)NC(=O)[C@@H](CC(=O)[C@@H](NC(=O)c1cc(C)on1)C(C)C)Cc1ccc(F)cc1 [Rupintrivir, reference compound] , please. 0.22

Given `O=C(COC(=O)[C@@H](CC(=O)c1ccccc1)Nc1ccc(F)cc1)c1ccccc1` , state its recorded IC50. 11.3
